System: RARg homodimer (NR concentration 270 nM)
Experiment: PBM binding z-score (relative to random genomic background probes); higher = stronger binding; sequences stand for … in GC…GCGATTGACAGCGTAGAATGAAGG
Rule: PBM binding z-score of 0.7 or more gives yes; anything lower gives no.

sequence string	study system	category
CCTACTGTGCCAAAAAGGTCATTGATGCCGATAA	RARg homodimer (NR concentration 270 nM)	yes
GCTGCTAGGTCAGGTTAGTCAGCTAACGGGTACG	RARg homodimer (NR concentration 270 nM)	yes
TAGCCTAGGTCATGGGCCAGTATACCACGCGAAC	RARg homodimer (NR concentration 270 nM)	yes
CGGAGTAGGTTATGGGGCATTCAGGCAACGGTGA	RARg homodimer (NR concentration 270 nM)	yes
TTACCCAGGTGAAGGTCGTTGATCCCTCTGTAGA	RARg homodimer (NR concentration 270 nM)	no
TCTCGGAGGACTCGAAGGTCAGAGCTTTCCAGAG	RARg homodimer (NR concentration 270 nM)	yes
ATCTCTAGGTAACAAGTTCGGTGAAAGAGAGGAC	RARg homodimer (NR concentration 270 nM)	yes
CCTACTGGGCCATAGGTCATTGATTCCAATGCTC	RARg homodimer (NR concentration 270 nM)	yes
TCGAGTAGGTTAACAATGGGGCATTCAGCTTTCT	RARg homodimer (NR concentration 270 nM)	no
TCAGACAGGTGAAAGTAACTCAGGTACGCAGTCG	RARg homodimer (NR concentration 270 nM)	no
TGAATGAGGTTATAAGATCCGGGAACGTTGCAAA	RARg homodimer (NR concentration 270 nM)	yes
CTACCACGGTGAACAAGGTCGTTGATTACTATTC	RARg homodimer (NR concentration 270 nM)	no
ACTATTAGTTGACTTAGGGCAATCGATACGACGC	RARg homodimer (NR concentration 270 nM)	yes
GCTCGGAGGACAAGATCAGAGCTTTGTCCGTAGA	RARg homodimer (NR concentration 270 nM)	no
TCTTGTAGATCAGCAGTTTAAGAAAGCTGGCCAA	RARg homodimer (NR concentration 270 nM)	no
AATACAGGGTCACTAGGCCAAAGTAGGTACGAAT	RARg homodimer (NR concentration 270 nM)	yes

---

System: RARa:RXR (NR concentration 270 nM, RXRa partner concentration 90 nM)
Assay: PBM binding z-score (relative to random genomic background probes); higher = stronger binding; sequences stand for … in GC…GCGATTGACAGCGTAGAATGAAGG

sequence string	PBM binding z-score
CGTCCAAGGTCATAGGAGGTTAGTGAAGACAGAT	4.61
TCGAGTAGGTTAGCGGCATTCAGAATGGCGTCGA	-0.504
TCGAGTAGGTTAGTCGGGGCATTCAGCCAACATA	0.00411
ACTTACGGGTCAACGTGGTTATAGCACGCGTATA	4.28
CAAACTAGGTCAAAAGTCAAAGTCGAGCCAACCA	4.56
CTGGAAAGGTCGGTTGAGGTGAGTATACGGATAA	2.05
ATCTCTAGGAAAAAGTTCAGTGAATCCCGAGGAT	0.235
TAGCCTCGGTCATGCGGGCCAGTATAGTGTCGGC	-0.296
CGTCAAAGTTCAACTACGGTAACGTAAAGCACGC	4.38
TAGCCTAGGTCATGGGCCAGGATACCACGCGAAC	2.52
ATCTCTAGGTATAAGTTCAGTGAATCCCGAGGAT	0.493
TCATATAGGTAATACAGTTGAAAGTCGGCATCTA	1.51
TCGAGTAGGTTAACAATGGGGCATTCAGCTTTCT	0.753
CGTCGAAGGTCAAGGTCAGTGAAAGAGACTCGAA	4.46
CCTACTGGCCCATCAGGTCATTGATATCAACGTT	1.83
ACTAGCAGGCCAACGGTCACTCAAGATTAGTCCG	0.0763
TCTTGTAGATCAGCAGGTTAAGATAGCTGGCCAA	0.429
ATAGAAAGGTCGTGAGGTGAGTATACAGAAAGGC	4.26
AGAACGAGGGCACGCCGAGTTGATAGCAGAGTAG	0.82
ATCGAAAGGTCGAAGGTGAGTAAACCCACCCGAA	4.5
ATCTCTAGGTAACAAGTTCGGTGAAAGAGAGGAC	0.675
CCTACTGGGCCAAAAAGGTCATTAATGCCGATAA	5.01
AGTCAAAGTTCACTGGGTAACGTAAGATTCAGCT	3.63
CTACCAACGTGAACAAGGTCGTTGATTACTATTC	1.4
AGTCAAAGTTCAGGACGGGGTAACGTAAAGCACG	3.45
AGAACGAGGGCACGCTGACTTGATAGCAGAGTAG	0.898
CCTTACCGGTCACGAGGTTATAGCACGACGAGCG	2.66
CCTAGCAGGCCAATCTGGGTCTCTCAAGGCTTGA	-0.353
TAGCCTAGGTCATTGGGACAGTATAGTACGCATC	2.5
CCGACTGGGGCAAAGGTTACAATACTCAGTACGA	4.23
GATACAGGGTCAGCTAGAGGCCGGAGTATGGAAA	3.41
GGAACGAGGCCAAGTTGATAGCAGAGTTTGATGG	-0.778
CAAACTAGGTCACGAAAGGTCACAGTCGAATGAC	7.03
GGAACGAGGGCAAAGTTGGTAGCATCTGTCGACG	0.765
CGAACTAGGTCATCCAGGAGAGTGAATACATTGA	2.31
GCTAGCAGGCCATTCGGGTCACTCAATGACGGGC	1.71
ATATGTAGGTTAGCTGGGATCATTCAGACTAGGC	0.547
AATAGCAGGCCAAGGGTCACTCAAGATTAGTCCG	4.09
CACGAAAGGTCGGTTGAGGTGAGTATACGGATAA	2.96
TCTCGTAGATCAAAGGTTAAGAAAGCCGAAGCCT	2.71
AATACAGGGTCACTAGGCCAAAGTAGGTACGAAT	4.17
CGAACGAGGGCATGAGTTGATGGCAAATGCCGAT	0.201
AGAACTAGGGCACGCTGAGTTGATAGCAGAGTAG	-0.11
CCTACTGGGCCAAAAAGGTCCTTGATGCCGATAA	-0.161
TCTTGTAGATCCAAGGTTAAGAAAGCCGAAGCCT	1.18
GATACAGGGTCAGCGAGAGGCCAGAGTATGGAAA	4.49
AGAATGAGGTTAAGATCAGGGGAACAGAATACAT	2.02
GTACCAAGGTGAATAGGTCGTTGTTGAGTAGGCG	1.5
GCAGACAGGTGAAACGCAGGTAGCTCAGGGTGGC	-0.358
